// provenance: PubChem BioAssay AID1159580

Would you kindly list normalized growth for each of these molecules?
run description: chemical genetic growth profiling, strain panel (AID 1159580);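 further: tested at 20 µM; growth read once vehicle control cultures reached saturation at 30 °C; 1 = growth at the plate median or of vehicle wells; lower values mean less growth of the strain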
condition description: S. cerevisiae deletion strains, growth OD, locus YMR219W, strain ESC1, active compounds read low
In all, about 5,500 compounds went through this assay and about 2,000 (36%) were called active. Inconclusive results (about 18%) are left out. The list shows a part of the results.
Give bare numbers.

>>> result("Cc1c(-c2ccnc(N)n2)nnn1-c1ccc(Cl)cc1Cl")
1
>>> result("COc1cc(C2N=C(c3ccc(Cl)cc3)SC(c3ccc(Cl)cc3)=N2)cc(OC)c1OC")
1
>>> result("Cc1onc(NC(=O)NC(=O)c2c(F)cccc2Cl)c1Br")
0.998

Lab note: each molecule below needs its normalized growth filled in.
1. O=C(COC(=O)c1ccccc1Nc1ccccc1)c1ccc(Cl)cc1
2. NC(=S)N/N=C\c1ccccc1
3. O=C(COC(=O)c1ccccc1Nc1cccc(F)c1)c1ccccc1

0.988
1
0.997

###

run description: chemical genetic growth profiling, strain panel (AID 1159580);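 further: tested at 20 µM; growth read once vehicle control cultures reached saturation at 30 °C; 1 = growth at the plate median or of vehicle wells; lower values mean less growth of the strain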
condition description: S. cerevisiae deletion strains, growth OD, locus YDR392W, strain spt3, active compounds read low
Among all 5,500 compounds or so, about 2,000 (36%) were called active. Roughly 18% stayed inconclusive and do not appear here. This is one part of the list.
So basically, if normalized growth comes in under 0.9 it's 1 (yes), and if it's 0.9 or more it's 0 (no).

>>> class_assignment("Cc1ccc2c(Cl)cc(Cl)c(O)c2n1")
"0 (no)"

For Nc1ncn([C@@H]2O[C@H](CO)[C@@H](O)[C@H]2O)c(=O)n1 , is the recorded normalized growth below the cut-off of 0.9?
0 (no)

For COc1cc(C(=O)NCc2ccc(OCCN(C)C)cc2)cc(OC)c1OC , is the recorded normalized growth below the cut-off of 0.9?
1 (yes)

For CO[C@H]1/C=C/O[C@@]2(C)Oc3c(C)c(O)c4c(O)c(c(/C=N/N5CCN(C)CC5)c(O)c4c3C2=O)NC(=O)/C(C)=C\C=C\C(C)[C@H](O)[C@@H](C)[C@@H](O)[C@@H](C)[C@@H](OC(C)=O)[C@@H]1C (some centres undefined) , is the recorded normalized growth below the cut-off of 0.9?
0 (no)

For COc1cccc(/C=C/C(=O)O)c1C(C)C , is the recorded normalized growth below the cut-off of 0.9?
0 (no)

For COc1cc2c(c(OC)c1OC)-c1ccc(OC)c(=O)cc1[C@@H](NC(C)=O)CC2 , is the recorded normalized growth below the cut-off of 0.9?
0 (no)

For O=C(O)c1ccccc1Nc1cccc(C(F)(F)F)c1 , is the recorded normalized growth below the cut-off of 0.9?
1 (yes)

###

run description: chemical genetic growth profiling, strain panel (AID 1159580);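 further: tested at 20 µM; growth read once vehicle control cultures reached saturation at 30 °C; 1 = growth at the plate median or of vehicle wells; lower values mean less growth of the strain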
condition description: S. cerevisiae deletion strains, growth OD, locus YGR052W, strain FMP48, active compounds read low
Out of some 5,500 compounds screened, about 2,000 (36%) were called active. Roughly 18% stayed inconclusive and do not appear here. The list shows a part of the results.
Would you kindly list normalized growth for each of these compounds?
Answers are plain numbers.

>>> result("CCCc1c(C(=O)NC2Cc3ccccc3C2)cnn1-c1ccccc1")
1.05
>>> result("CCCc1c(C(=O)NNc2cccc(Cl)c2)cnn1-c1ccccc1")
1
>>> result("CCOC(=O)/C(=N/Nc1c(Cl)cccc1Cl)c1csc(N)n1")
0.933

Lab note: each compound below needs its normalized growth filled in.
1. Cn1c(CSCCOc2ccccc2)nnc1SCc1ccc(Cl)cc1Cl
2. FC(F)(F)c1cccc(NC(=S)Nc2csc(C(F)(F)F)c2-c2ccccc2)c1
3. CC(C)c1ccc(NC(=S)NC(=O)c2ccccc2)cc1

1. 1.12
2. 1.03
3. 1.03
